# ASSAY METHOD TEXT: Dog pharmacokinetic studies
# Type: in vivo, male Beagle dogs
# CONDITIONS: male, Beagle, plasma, PO 0.3 mg/kg
ASSAY READOUT: MRT (h)
Quick note: give the figure in h, leave out the unit.

Per the records, this compound ( CC(C)(C)NC[C@H](O)c1cccc(C#N)n1 [Compound 03-5] ) has MRT equal to 1.22

###

# TESTED SYSTEM: UniProt P07550
# Sequence (P07550 whole entry, species assumed): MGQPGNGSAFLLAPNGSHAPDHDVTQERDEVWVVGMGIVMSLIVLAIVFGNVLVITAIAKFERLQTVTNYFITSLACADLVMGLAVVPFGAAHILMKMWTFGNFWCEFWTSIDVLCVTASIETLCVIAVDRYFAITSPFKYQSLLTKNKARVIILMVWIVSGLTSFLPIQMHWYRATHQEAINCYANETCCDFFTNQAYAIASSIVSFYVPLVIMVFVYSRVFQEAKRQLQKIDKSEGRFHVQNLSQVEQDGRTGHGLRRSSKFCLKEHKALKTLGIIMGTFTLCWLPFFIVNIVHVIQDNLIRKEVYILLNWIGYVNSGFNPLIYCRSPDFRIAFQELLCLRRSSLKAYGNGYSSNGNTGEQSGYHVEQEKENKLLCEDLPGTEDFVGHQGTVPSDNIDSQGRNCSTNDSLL
# ASSAY METHOD TEXT: cAMP Gs dynamic HTRF assay, β2 expressing CHO cells
# Type: cell-based
# CONDITIONS: Average pEC50 [Receptor subtype: B2-AR; Cell type: CHO-K1 (HitHunter)], B2-AR; CHO-K1 (HitHunter)
pEC50: −log10 of the molar value.
ASSAY READOUT: pEC50

Per the records, this compound ( `COc1ccc(C[C@@H](C)NC[C@H](O)c2ccc(NC3CC3)nc2C)cc1` ) has pEC50 equal to 7.00 to 8.00

Per the records, this compound ( `COc1ccc(C[C@@H](C)NC[C@H](O)c2cc(F)cnc2C)cc1` ) has pEC50 equal to > 8.00

Per the records, this compound ( `COc1ccc(C[C@@H](C)NC[C@H](O)c2cnc(C)nc2C)cc1` ) has pEC50 equal to 7.00 to 8.00

Per the records, this compound ( `COc1ccc(C[C@@H](C)NC[C@H](O)c2cccnc2C2=CCCC2)cc1` ) has pEC50 equal to 6.00 to 7.00

Per the records, this compound ( `CNc1ccc([C@@H](O)CN[C@H](C)Cc2ccc(OC)cc2)c(C)n1` ) has pEC50 equal to > 8.00

Per the records, this compound ( `COc1ccc(C[C@@H](C)NC[C@H](O)c2ccc(OC)nc2C)cc1` ) has pEC50 equal to 7.00 to 8.00

Per the records, this compound ( `COc1ccc(C[C@@H](C)NC[C@H](O)c2cccnc2C2CCCC2)cc1` ) has pEC50 equal to 6.00 to 7.00
